- Protocol details: Pharmacokinetics of GHB after two consecutive 3 g oral doses in narcoleptic patients
- Assay type: in vivo, human
- Particulars: human, plasma, oral, narcoleptic patients; read-out: elimination half-life of GHB
- Protocol: The objective of this study was to assess the pharmacokinetics of GHB after oral administration of two consecutive single doses of GHB (3 g/dose; patients generally ingested the first dose of this medication prior to bedtime and the second dose from 2.5 to 4.0 h later) to narcoleptic patients who are maintained on a chronic regimen of GHB. […] The first GHB dose (3 g) was administered at around 10 p.m. […] The exact dosing times in each patient were recorded on appropriate CRF pages. […]
Endpoint: half-life

// query Please give the measured half-life for this molecule: O=C(O)CCCO [GHB, gamma-hydroxybutyrate]
// result < 1 h

====

- Protocol details: Pharmacokinetics of GHB after two consecutive 3 g oral doses in narcoleptic patients
- Type: in vivo, human
- Particulars: human, plasma; two 3 g oral doses 4 h apart; read-out: mean AUCinf (converted)
Endpoint: AUC(0-inf) (µg·h/mL)
# number only, unit µg·h/mL dropped from output

// query Please give the measured AUC(0-inf) for this molecule: O=C(O)CCCO [GHB, gamma-hydroxybutyrate]
// result 296

====

- Protocol details: Solubility of sodium oxybate (GHB) in aqueous solution versus pH
- Particulars: aqueous medium, 25 °C, pH 4, aqueous buffer, thermodynamic from solid
Endpoint: solubility
The number alone won't do; follow it with the unit.

// query Please give the measured solubility for this molecule: O=C(O)CCCO [Sodium Oxybate, sodium oxybate]
// result 450 mg/mL

====

- Protocol details: Solubility of sodium oxybate (GHB) in aqueous solution versus pH
- Particulars: aqueous medium, 65 °C, thermodynamic from solid
Endpoint: solubility (mg/mL)
# number only, unit mg/mL dropped from output

// query Please give the measured solubility for this compound: O=C(O)CCCO [Sodium Oxybate, sodium oxybate]
// result 1000

====

- Protocol details: Solubility of sodium oxybate (GHB) in aqueous solution versus pH
- Particulars: aqueous medium, 100 °C, thermodynamic from solid
Endpoint: solubility

// query Please give the measured solubility for this compound: O=C(O)CCCO [GHB, gamma-hydroxybutyrate]
// result ≥ 1000 mg/mL

====

- Protocol details: Solubility of sodium oxybate (GHB) in aqueous solution versus pH
- Particulars: aqueous medium, 25 °C, thermodynamic from solid
Endpoint: solubility

// query Please give the measured solubility for this compound: O=C(O)CCCO [GHB, gamma-hydroxybutyrate]
// result ≤ 750 mg/mL

====

- Protocol details: Pharmacokinetics of GHB after two consecutive 3 g oral doses in narcoleptic patients
- Assay type: in vivo, human
- Particulars: human, plasma, po, 3 g, second 3 g oral GHB dose (4 h after the first); read-out: maximum GHB concentration (Cmax), mean ±SD
Endpoint: Cmax
The number alone won't do; follow it with the unit.

// query Please give the measured Cmax for this compound: O=C(O)CCCO [GHB, gamma-hydroxybutyrate]
// result 91.2 µg/mL

====

- Protocol details: Pharmacokinetics of GHB after two consecutive 3 g oral doses in narcoleptic patients
- Type: in vivo, human
- Particulars: human, plasma, oral, 3 g; at h 4 after the first GHB dose, in three of six patients; read-out: residual GHB levels
Endpoint: concentration at 4 h

// query Please give the measured concentration at 4 h for this molecule: O=C(O)CCCO [GHB, gamma-hydroxybutyrate]
// result ~15000 ng/mL

====

- Protocol details: Solubility of sodium oxybate (GHB) in aqueous solution versus pH
- Particulars: aqueous medium, 25 °C, pH 6.8, aqueous buffer, thermodynamic from solid
Endpoint: solubility (mg/mL)
# number only, unit mg/mL dropped from output

// query Please give the measured solubility for this compound: O=C(O)CCCO [Sodium Oxybate, sodium oxybate]
// result 750

====

- Protocol details: Pharmacokinetics of GHB after two consecutive 3 g oral doses in narcoleptic patients
- Type: in vivo, human
- Particulars: human, plasma, oral, 3 g; after dosing (discussion)
Endpoint: Tmax

// query Please give the measured Tmax for this molecule: O=C(O)CCCO [GHB, gamma-hydroxybutyrate]
// result ~40 min

====

- Protocol details: Solubility of sodium oxybate (GHB) in aqueous solution versus pH
- Particulars: aqueous medium, 25 °C, pH 5, aqueous buffer, thermodynamic from solid
Endpoint: solubility
The number alone won't do; follow it with the unit.

// query Please give the measured solubility for this molecule: O=C(O)CCCO [Sodium Oxybate, sodium oxybate]
// result 500 mg/mL

====

- Protocol details: Pharmacokinetics of GHB after two consecutive 3 g oral doses in narcoleptic patients
- Assay type: in vivo, human
- Particulars: human, plasma, po, 3 g, first 3 g oral GHB dose, 6 narcoleptic patients; read-out: maximum GHB concentration (Cmax), mean ±SD
Endpoint: Cmax
The number alone won't do; follow it with the unit.

// query Please give the measured Cmax for this compound: O=C(O)CCCO [GHB, gamma-hydroxybutyrate]
// result 62.8 µg/mL
